Assay: physchem
Assay type: physicochemical
Details: pH 6, aqueous buffer
Peptide text beside a SMILES is read from it.
quantity kind: solubility thermodynamic at 24 h (µg/mL)
Please give a number only; it is taken to be in µg/mL.

Would you mind telling me what solubility thermodynamic at 24 h value was observed for CC(C)[C@H](NC(=O)[C@@H](NC(=O)[C@H](Cc1ccccc1)NC(=O)[C@@H](NC(=O)[C@@H](NC(=O)[C@@H](N)Cc1ccccc1)[C@@H](C)O)[C@@H](C)O)[C@@H](C)O)C(=O)N[C@H](C(=O)O)[C@@H](C)O [CSP7 (ammonium counterion), FTTFTVT] (H-FTTFTVT-OH; N-terminus and C-terminus assumed) ?
70

----------
Experiment: pH-solubility of polypeptide variants
Format: physicochemical
Details: pH 8.5
Peptide text beside a SMILES is read from it.
quantity kind: solubility thermodynamic at 3 min (µg/mL)
Express your answer in µg/mL, writing the number without its unit.

For the compound shown here, CC(C)[C@H](NC(=O)[C@@H](NC(=O)[C@H](Cc1ccccc1)NC(=O)[C@@H](NC(=O)[C@@H](NC(=O)[C@@H](N)Cc1ccccc1)[C@@H](C)O)[C@@H](C)O)[C@@H](C)O)C(=O)N[C@H](C(=O)O)[C@@H](C)O [CSP7, FTTFTVT] (H-FTTFTVT-OH; N-terminus and C-terminus assumed) , give the reported solubility thermodynamic at 3 min.
1430

----------
Assay: pH-solubility of polypeptide variants
Type: physicochemical
Details: pH 4.5; a: precipitate, supernatant assayed; read-out: pH-solubility, Concentration
Square brackets hold non-standard residues; d marks the D form. Peptide text beside a SMILES is read from it. Orn = NCCC[C@H](N)C(=O)O
quantity kind: solubility thermodynamic at 3 min
Report as: number unit

For orientation, consider the following solved cases.
{"compound": "CC(C)[C@H](NC(=O)[C@@H](NC(=O)[C@H](Cc1ccccc1)NC(=O)[C@@H](NC(=O)[C@@H](NC(=O)[C@H](Cc1ccccc1)NC(=O)[C@H](CO)NC(=O)[C@H](C)NC(=O)[C@@H](N)CCCN)[C@@H](C)O)[C@@H](C)O)[C@@H](C)O)C(=O)N[C@H](C(=O)N[C@@H](CCCN)C(=O)N[C@@H](CO)C(N)=O)[C@@H](C)O [SEQ ID NO.10, OASFTTFTVTOS-NH2] (H-[Orn]ASFTTFTVT[Orn]S-NH2)", "solubility thermodynamic at 3 min": "33.9 mg/mL"}
{"compound": "CC(C)[C@H](N)C(=O)N[C@H](C(=O)N[C@@H](CCCCN)C(=O)N[C@@H](Cc1ccc(O)cc1)C(=O)N[C@@H](Cc1c[nH]c2ccccc12)C(=O)N[C@@H](Cc1ccccc1)C(=O)N[C@@H](Cc1ccc(O)cc1)C(=O)N[C@@H](CCCNC(=N)N)C(N)=O)[C@@H](C)O [SEQ ID NO.22] (H-VTKYWFYR-NH2)", "solubility thermodynamic at 3 min": "57.2 mg/mL"}
{"compound": "CC[C@H](C)[C@H](NC(=O)CNC(=O)[C@@H](N)CC(=O)O)C(=O)N[C@@H](Cc1c[nH]c2ccccc12)C(=O)N[C@@H](CCCCN)C(=O)N[C@@H](C)C(=O)N[C@@H](CO)C(=O)N[C@@H](Cc1ccccc1)C(N)=O [SEQ ID NO.21] (H-DGIWKASF-NH2)", "solubility thermodynamic at 3 min": "0.62 mg/mL"}

Can you share its solubility thermodynamic at 3 min? I mean this compound: CC(C)[C@H](NC(=O)[C@@H](NC(=O)[C@H](Cc1ccccc1)NC(=O)[C@@H](NC(=O)[C@@H](NC(=O)[C@H](Cc1ccccc1)NC(=O)[C@H](CO)NC(=O)[C@H](C)NC(=O)[C@@H](N)CCCCN)[C@@H](C)O)[C@@H](C)O)[C@@H](C)O)C(=O)N[C@H](C(=O)N[C@@H](CCCCN)C(=O)NCC(=O)N[C@@H](CO)C(=O)O)[C@@H](C)O [SEQ ID NO.4] (H-KASFTTFTVTKGS-OH)
25.4 mg/mL

Data origin: patent US12280088B2
